Below, each of the molecules is paired with its reported inhibition value.
- System: GTPase KRas (Homo sapiens), P01116 [UNDEFINED MUTATION]
- Sequence (P01116 whole entry, looked up, change not shown): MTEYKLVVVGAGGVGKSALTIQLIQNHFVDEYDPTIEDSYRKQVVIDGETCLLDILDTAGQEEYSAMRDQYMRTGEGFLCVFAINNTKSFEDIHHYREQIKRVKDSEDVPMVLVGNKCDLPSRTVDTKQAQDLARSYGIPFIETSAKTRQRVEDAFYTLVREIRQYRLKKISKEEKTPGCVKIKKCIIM
- ASSAY TEXT: Inhibition of KRas mutant in human DLD1 cells assessed as cell viability by measuring ATP at 20 uM relative to control
- Assay type: cell-based
READOUT LABEL: inhibition (%)

[[record]]
test_smiles = "CCCCCc1c2c(c(C)c3c1C(=O)OC3)Oc1ccc(OC)cc1O2"
reading_unit = "%"
reported_result = 73

[[record]]
test_smiles = "CCCCCc1c2c(c(C)c3c1Oc1ccccc1O3)C(=O)OC2"
reading_unit = "%"
reported_result = 40

[[record]]
test_smiles = "CCCCCc1c2c(c(C)c3c1Oc1cc(OC)ccc1O3)C(=O)OC2"
reading_unit = "%"
reported_result = -3.9

[[record]]
test_smiles = "CCCCc1c2c(c(C)c3c1Oc1ccccc1O3)C(=O)OC2"
reading_unit = "%"
reported_result = 41

[[record]]
test_smiles = "CCCCCCc1c2c(c(C)c3c1Oc1ccccc1O3)C(=O)SC2"
reading_unit = "%"
reported_result = 14

[[record]]
test_smiles = "CCCCc1c2c(c(C)c3c1C(=O)OC3)Oc1ccccc1O2"
reading_unit = "%"
reported_result = 91


meta.source: ChEMBL document CHEMBL4312009
